Test system: MGC-803
Assay details: Antiproliferative activity against human MGC803 cells assessed as inhibition of cell growth by MTT assay
Readout: pIC50
In plain terms, pIC50 is the concentration in mol/L turned into minus its base-10 logarithm.

| Smiles input | Readout number |
| --- | --- |
| Cc1c(C(=O)N/N=C\c2cccc(F)c2O)oc2cccc(O)c12 | 5.08 |

Quick one: pIC50 of Cc1c(C(=O)N/N=C\c2cccc(O)c2O)oc2cccc(O)c12 ? 5.30

Requested field: pIC50. Item: Cc1ccc(O)c(/C=N\NC(=O)c2oc3cccc(O)c3c2C)c1 5.22

Entry under review: Cc1c(C(=O)N/N=C\c2cccc(Br)c2O)oc2cccc(O)c12 . Reported pIC50? 4.85

Tell me the measured pIC50 of Cc1c(C(=O)N/N=C\c2cc(F)ccc2O)oc2cccc(O)c12 , please. 5.28

Could you share which pIC50 value was measured for Cc1c(C(=O)N/N=C\c2ccc(O)c(O)c2O)oc2cccc(O)c12 ? 4.74

Which pIC50 is listed for Cc1c(C(=O)N/N=C\c2ccccc2O)oc2cccc(O)c12 ? 4.97

Given the entry Cc1c(C(=O)N/N=C\c2cc(Cl)ccc2O)oc2cccc(O)c12 , report its measured pIC50. 5.38

Field request: pIC50 | item: Cc1c(C(=O)N/N=C\c2ccc(Br)cc2O)oc2cccc(O)c12 5.26

Param item = Cc1c(C(=O)N/N=C\c2c(O)cccc2F)oc2cccc(O)c12 ; retrieve measured pIC50. 4.96

# pIC50 lookup, item Cc1c(C(=O)N/N=C\c2cc(Cl)cc(Cl)c2O)oc2cccc(O)c12 5.36

So what's the measured pIC50 for this one? Cc1c(C(=O)N/N=C\c2ccc(O)cc2O)oc2cccc(O)c12 5.13

---

Test system: MCF7
Assay details: Antiproliferative activity against human MCF7 cells assessed as inhibition of cell growth
Readout: pIC50
// pIC50 here means minus log10 of the molar concentration (mol/L)

Examples with their reported pIC50 follow.
| Smiles input | Tested system | pIC50 |
| --- | --- | --- |
| Cc1c(C(=O)N/N=C\c2c(O)cccc2F)oc2cccc(O)c12 | MCF7 | 5.76 |
| Cc1c(C(=O)N/N=C\c2ccc(O)cc2O)oc2cccc(O)c12 | MCF7 | 5.68 |

Now turn to the next compound.
Look at this compound and give its reported pIC50. Cc1c(C(=O)N/N=C\c2ccc(O)c(O)c2O)oc2cccc(O)c12 4.77
